System: HL-1
Experiment: relative cell viability (CellTiter-Glo) vs DMSO control (% of DMSO control); higher = more viable cells
Settings: oxygen condition: normoxia 72 h; 1000 nM
Counter-ions that a name gives are not always drawn.
Decision: relative cell viability beneath 100 gives 1; relative cell viability meeting or exceeding 100 gives -1.

COc1cccc2c1C(=O)c1c(O)c3c(c(O)c1C2=O)C[C@@](O)(C(=O)CO)C[C@@H]3O[C@H]1C[C@H](N)[C@H](O)[C@H](C)O1; 1

Request: In the record for CCCN(CCC)CCc1cccc2c1CC(=O)N2 [Ropinirole HCl] , is relative cell viability less than 100?
Response: -1

Request: Say whether its relative cell viability is strictly beneath 100. Entry: "CN1[C@@H]2CC[C@H]1C[C@@H](OC(=O)c1c[nH]c3ccccc13)C2"
Response: -1

Request: is_below(relative cell viability, 100) for COc1cc2nc(N(C)CCCNC(=O)C3CCCO3)nc(N)c2cc1OC (centres undefined) [Alfuzosin hydrochloride] ?
Response: -1

---

Test system: HL-1
Experiment: relative cell viability (CellTiter-Glo) vs DMSO control (% of DMSO control); higher = more viable cells
Details: oxygen condition: normoxia 72 h; 40 nM
Where a name gives a salt, the structure may show the parent alone.
relative cell viability values for the compounds below.
No unit in the answer, please; the number alone is enough.

Solved entries (count: 3):
Nc1nc(F)nc2c1ncn2[C@@H]1O[C@H](CO)[C@@H](O)[C@@H]1O [Fludarabine]; 101
NCCc1c[nH]cn1 [Histamine Phosphate]; 98.8
CSc1ccc2c(c1)N(CCC1CCCCN1C)c1ccccc1S2 (configuration not stated) [Thioridazine HCl]; 98.9

Request: Please report the recorded relative cell viability for N[C@@H](CSCCCO)C(=O)O [Fudosteine] .
Response: 106

Request: // query relative cell viability value for entry O=P(O)(O)C(Cl)(Cl)P(=O)(O)O [Clodronate Disodium]
Response: 117

---

Test system: HL-1
Test: relative cell viability (CellTiter-Glo) vs DMSO control (% of DMSO control); higher = more viable cells
Conditions: oxygen condition: hypoxia 48 h (1% O2) + reoxygenation 24 h; 200 nM
measurement.type: relative cell viability
Keep the answer to the number alone.

C=CCNC(N)=S; 102
C[C@@H](NCCCc1cccc(C(F)(F)F)c1)c1cccc2ccccc12; 102
CC1(C)O[C@@H]2[C@@H](CO[C@@]3(COS(N)(=O)=O)OC(C)(C)O[C@@H]23)O1 [Topiramate]; 91.8
C[N+]1(C)CCC(=C(c2ccccc2)c2ccccc2)CC1 [Diphemanil methylsulfate]; 100

Next, consider the following molecule.
Request: Request body: readout relative cell viability, system HL-1, query "NC(=O)c1ncn([C@@H]2O[C@H](CO)[C@@H](O)[C@H]2O)n1" . Return the value.
Response: 96.2

---

System: HL-1
Assay: relative cell viability (CellTiter-Glo) vs DMSO control (% of DMSO control); higher = more viable cells
Settings: oxygen condition: normoxia 72 h; 40 nM
Counter-ions that a name gives are not always drawn.
Measured relative cell viability by item
Please respond with just the number, no unit label.

Some entries whose results are on file:
CCCc1ncc(C[n+]2ccccc2C)c(N)n1 [Amprolium HCl]; 97.4
Cl.N=C(N)NCCC[C@H](N)C(=O)O [L-Arginine HCl]; 100
O=c1[nH]c(=O)n([C@H]2C[C@H](O)[C@@H](CO)O2)cc1F [Floxuridine]; 46.1
CC(=O)O[C@H]1CC[C@@]2(C)C(=CC[C@@H]3[C@@H]2CC[C@]2(C)C(c4cccnc4)=CC[C@@H]32)C1 [Abiraterone Acetate]; 97.2
C[C@@H]1CC(=O)NN=C1c1ccc(NN=C(C#N)C#N)cc1 [Levosimendan]; 95.9

Next compound, please.
Request: Name the recorded relative cell viability for CC(C)NCC(O)c1ccc(NS(C)(=O)=O)cc1 (centres undefined) [Sotalol] .
Response: 96.9

---

Listing: relative cell viability of selected molecules
Tested on: HL-1
Experiment: relative cell viability (CellTiter-Glo) vs DMSO control (% of DMSO control); higher = more viable cells
Settings: oxygen condition: hypoxia 48 h (1% O2) + reoxygenation 24 h; 200 nM
Where a name gives a salt, the structure may show the parent alone.
The reply should be a number, written without any unit.

CN(N=O)C(=O)N[C@@H](C=O)[C@@H](O)[C@H](O)[C@H](O)CO [Streptozotocin]; 103
CC1CCc2cc(F)cc3c(=O)c(C(=O)O)cn1c23 (stereo not drawn) [Flumequine]; 98.4
CO[C@@H]1[C@@H](OC(N)=O)[C@@H](O)[C@H](Oc2ccc3c(O)c(NC(=O)c4ccc(O)c(CC=C(C)C)c4)c(=O)oc3c2C)OC1(C)C [Novobiocin sodium]; 102
CC[C@]1(O)C[C@@H]2CN(CCc3c([nH]c4ccccc34)[C@@](C(=O)OC)(c3cc4c(cc3OC)N(C)[C@H]3[C@@](O)(C(=O)OC)[C@H](OC(C)=O)[C@]5(CC)C=CCN6CC[C@]43[C@@H]65)C2)C1 [Vinblastine]; 41.6
CN1CCCC(n2nc(Cc3ccc(Cl)cc3)c3ccccc3c2=O)CC1 (stereo not drawn) [Azelastine hydrochloride]; 98.2
CC(C)(Oc1ccc(Cl)cc1)C(=O)O [Clofibric acid]; 105
CCCc1nn(C)c2c(=O)[nH]c(-c3cc(S(=O)(=O)N4CCN(C)CC4)ccc3OCC)nc12 [Sildenafil citrate]; 102
C[C@H]1O[C@H](O[C@H]2[C@H](O)[C@@H](O)[C@@H](O[C@H]3[C@H](O)[C@@H](O)C(O)O[C@@H]3CO)O[C@@H]2CO)[C@H](O)[C@@H](O)[C@@H]1N[C@H]1C=C(CO)[C@@H](O)[C@H](O)[C@H]1O (stereo partly drawn) [Acarbose]; 108

Request: Value lookup for relative cell viability; key = C#C[C@]1(O)CC[C@H]2[C@@H]3CCc4cc(OC)ccc4[C@H]3CC[C@@]21C [Mestranol]
Response: 106

Request: Fill in: relative cell viability of Clc1ccc(C(Cn2ccnc2)OCc2ccc(Sc3ccccc3)cc2)c(Cl)c1 (stereo not drawn) [Fenticonazole nitrate] is ___
Response: 102

Request: Request the reported relative cell viability associated with C[C@]12CCC(=O)C=C1[C@@H]1C[C@@H]1[C@H]1[C@@H]3[C@@H]4C[C@@H]4[C@@]4(CCC(=O)O4)[C@@]3(C)CC[C@@H]12 [Drospirenone]
Response: 104

Request: Given the entry Cc1ccc(NC(=O)c2ccc(CN3CCN(C)CC3)cc2)cc1Nc1nccc(-c2cccnc2)n1 [Imatinib] , report its measured relative cell viability.
Response: 101

Request: Dear colleague, I am looking for the recorded relative cell viability of the following molecule: Nc1ccn([C@@H]2O[C@H](CO)[C@@H](O)[C@H]2O)c(=O)n1 [Cytidine]
Response: 101

---

Test system: HL-1
Experiment: relative cell viability (CellTiter-Glo) vs DMSO control (% of DMSO control); higher = more viable cells
Settings: oxygen condition: normoxia 72 h; 40 nM
Where a name gives a salt, the structure may show the parent alone.
measurement.type: relative cell viability
// no unit, no text: just the number

# example entries with known answers
Cc1cccc(C)c1NC(=O)C1CCCCN1C (stereo not given) [Mepivacaine HCl]; 102
CN(C)C/C=C/C(=O)Nc1cc2c(Nc3ccc(F)c(Cl)c3)ncnc2cc1O[C@H]1CCOC1; 102
NC(CO)C(=O)NNCc1ccc(O)c(O)c1O (stereo not given) [Benserazide]; 97.3
CN(c1nccc(=O)[nH]1)C1CCN(c2nc3ccccc3n2Cc2ccc(F)cc2)CC1; 97.3
NC[C@H]1CC[C@H](C(=O)O)CC1; 101
CN(C)CCc1c[nH]c2ccc(CS(=O)(=O)N3CCCC3)cc12 [Almotriptan malate]; 98.2

Request: State the recorded relative cell viability for this entry: COc1ccccc1N1CCN(CC(O)COc2cccc3ccccc23)CC1 (stereo not given)
Response: 102

Request: What value of relative cell viability has been reported for the following compound? CCN(CC)CCNC(C(=O)OCCC(C)C)c1ccccc1 (stereo not given) [Camylofin Chlorhydrate]
Response: 101

Request: Name the reported relative cell viability value associated with the compound CC[C@H]1OC(=O)C[C@@H](O)[C@H](C)[C@@H](O[C@@H]2O[C@H](C)[C@@H](O[C@H]3C[C@@](C)(O)[C@@H](O)[C@H](C)O3)[C@H](N(C)C)[C@H]2O)[C@@H](CC=O)C[C@@H](C)C(=O)/C=C/C(C)=C/[C@@H]1CO[C@@H]1O[C@H](C)[C@@H](O)[C@@H](OC)[C@H]1OC [Tylosin tartrate]
Response: 101

Request: // returns reported relative cell viability for input "CC(C)(C#N)c1cc(Cn2cncn2)cc(C(C)(C)C#N)c1"
Response: 100

---

Parameter: relative cell viability. Scope: all listed entries.
System: HL-1
Assay: relative cell viability (CellTiter-Glo) vs DMSO control (% of DMSO control); higher = more viable cells
Conditions: oxygen condition: hypoxia 48 h (1% O2) + reoxygenation 24 h; 40 nM
Counter-ions that a name gives are not always drawn.

Would you please look over these solved cases?
CNCCCC12CCC(c3ccccc31)c1ccccc12 [Maprotiline hydrochloride]; 98.7
CN(N=O)C(=O)N[C@@H](C=O)[C@@H](O)[C@H](O)[C@H](O)CO [Streptozotocin]; 103
NCCCCCC(=O)O [Aminocaproic acid]; 102
CN(C)CCc1c[nH]c2ccc(CS(=O)(=O)N3CCCC3)cc12 [Almotriptan malate]; 98

Lab note: next molecule to report on.
Request: Give recorded relative cell viability with HL-1 for the following molecule: Cc1nc2c([nH]1)-c1ccccc1N(C(=O)c1ccc(NC(=O)c3ccccc3-c3ccccc3)cc1)CC2 [Conivaptan HCl]
Response: 100
